These measurements were taken from patent US20240327497A1.

target-of-assay: canine FcRn (FcRn large subunit with canine beta-2-microglobulin) (canine)
method-summary: SPR pH 6.0, IgG coupled to CM5, FcRn 50-800 nM
# koff per record follows
Give the value in s⁻¹ but do not write s⁻¹ after it.

• canine IgGA antibody, Fc variant A426H, variable domain of Gearing et al. 2013 (antibody, part only; not given: Variable domains, not shown: another chain or arm of the molecule; small tags and cut ends) Fc: VPEPLGGPSVLIFPPKPKDILRITRTPEVTCVVLDLGREDPEVQISWFVDGKEVHTAKTQSREQQFNGTYRVVSVLPIEHQDWLTGKEFKCRVNHIDLPSPIERTISKARGRAHKPSVYVLPPSPKELSSSDTVSITCLIKDFYPPDIDVEWQSNGQQEPERKHRMTPPQLDEDGSYFLYSKLSVDKSRWQQGDPFTCHVMHETLQNHYTDLSLSHSPGK = 0.0591

Now look at this one.
Record summary for anti-NGF canine IgGB antibody, Fc variant A426Y (antibody, part only; not given: Anti-NGF variable domains, not shown: another chain or arm of the molecule; small tags and cut ends) Fc: APEMLGGPSVFIFPPKPKDTLLIARTPEVTCVVVDLDPEDPEVQISWFVDGKQMQTAKTQPREEQFNGTYRVVSVLPIGHQDWLKGKQFTCKVNNKALPSPIERTISKARGQAHQPSVYVLPPSREELSKNTVSLTCLIKDFFPPDIDVEWQSNGQQEPESKYRTTPPQLDEDGSYFLYSKLSVDKSRWQRGDTFICYVMHEALHNHYTQESLSHSPGK : reported koff = 0.134
